Readings of α-Glucosidase IC50 (Mean ± SEM) for the listed compounds
Biological target: Yeast α-glucosidase
Assay: α-Glucosidase inhibitory assay with pNPG as substrate
Format: biochemical
Conditions: test concentration up to 400 µg/mL in 10% DMSO, triplicate
measurement-kind: α-Glucosidase IC50 (Mean ± SEM) (µg/mL)

INSERT INTO assay_data (compound, endpoint_value) VALUES
  ('COc1c(O)cc2c(c1O)C(=O)c1c(cc(C)c(O)c1OC)C2=O [Aurantio-obtusin]', 41.20),
  ('COc1cc2c(c(OC)c1OC)C(=O)c1c(cc(C)c(O[C@@H]3O[C@H](CO)[C@@H](O)[C@H](O)[C@H]3O)c1OC)C2=O [Chryso-obtusin-2-glucoside, chryso-obtusin-2-O-β-D-glucoside]', 178.85),
  ('COc1c(O)c(O)cc2c1C(=O)c1c(O)cc(C)cc1C2=O [2-Hydroxyemodin-1 methylether]', 5.65),
  ('COc1cc2c(c(O)c1OC)C(=O)c1c(cc(C)c(O)c1OC)C2=O', 20.92),
  ('COc1c(O)c(C)cc2c1C(=O)c1c(O)cccc1C2=O', 142.12),
  ('COc1cc(O)c2c(c1)C(=O)c1cc(C)cc(O)c1C2=O', 2.38),
  ('COc1c(O[C@@H]2O[C@H](CO)[C@@H](O)[C@H](O)[C@H]2O)c(C)cc2c1C(=O)c1c(O)cccc1C2=O', 23.77),
  ('COc1c(O[C@@H]2O[C@H](CO)[C@@H](O)[C@H](O)[C@H]2O)cc2c(c1O)C(=O)c1c(cc(C)c(O)c1OC)C2=O [Gluco-aurantio obtusin]', 142.19),
  ('COc1cc(O)cc2c1C(=O)c1c(O)cc(C)cc1C2=O', 136.19),
  ('O=C1c2cccc(O)c2C(=O)c2c(O)cc(CO)cc21', 1.40);
